Test system: HDAC
Assay: Fluorescence-based HDAC inhibition assay in solution using HeLa nuclear extracts
Type: biochemical
Details: hydroxamic acid-based multivalent HDACi; HeLa nuclear extracts, TosGPK(Ac)-AMC substrate 43 µM, 45 min at 37 °C; average of at least 2 experiments
pEC50: −log10 of the molar value.
value kind: pEC50

O=C(CCCCCCC(=O)Nc1cc(NC(=O)CCCCCCC(=O)NO)c(NC(=O)CCCCCCC(=O)NO)cc1NC(=O)CCCCCCC(=O)NO)NO [MuH2344]: 5.65
O=C(CCCCCCC(=O)Nc1ccccc1NC(=O)CCCCCCC(=O)NO)NO [MuH2322]: 6.28
O=C(CCCCCCC(=O)Nc1ccc(NC(=O)CCCCCCC(=O)NO)cc1)NO [MuH2323]: 6.32

A: O=C(CCCCCCC(=O)Nc1cccc(NC(=O)CCCCCCC(=O)NO)c1)NO [MuH2324]
B: O=C(CCCCCCc1cn(CCCCCCC(=O)NO)nn1)NO [MuH2321]
Lab note: check whether A or B shows the higher recorded pEC50. Answer format: the label of the selected item. A
(A: 7.22, B: 6.64)

Data credit: patent EP4574212A1
